- experiment_summary: Quantitative highthroughput screen to assess conditional lethalithy of P12 Ichikawa cells grown in RPMI1640 with untreated serum (RPMI+s) (AID 1963881); note: nearly all actives have a fitted effect of over 35% in size; note: potency is the fitted concentration of half-maximal effect
- test_context: ATP luminescence, 48 h; viability; series mostly up to 45.8 µM
Records with an inconclusive call do not appear. Activity calls are given as the source filed them. Calls come from the whole dose curve; as a rule, active = well fitted cell-killing curve with a large enough effect; inconclusive = small, poorly fitted or top-dose-only effect; inactive = flat fitted curve, though single readings scatter.

{"molecule": "Cc1ccc(C(=O)Nc2cccc(C(F)(F)F)c2)cc1Nc1nc(-c2cccnc2)nc2c1cnn2C", "Potency": "inactive"}
{"molecule": "CC(C)C(C)C=CC(C)C1CCC2C3=CC=C4CC(O)CCC4(C)C3CCC21C (configuration not stated)", "Potency": "inactive"}
{"molecule": "Nc1ccc(S(N)(=O)=O)cc1", "Potency": "inactive"}
{"molecule": "C[C@]12C=CC(=O)C=C1CC[C@@H]1[C@@H]2C(=O)C[C@@]2(C)[C@H]1CC[C@]2(O)C(=O)CO", "Potency": "inactive"}
{"molecule": "NNCCc1ccccc1", "Potency": "inactive"}
{"molecule": "CS(=O)(=O)c1ccc(-c2cnc(N)c(C(=O)Nc3ccccc3)n2)cc1", "Potency": "8.33 µM (active)"}
{"molecule": "Cc1ncc([N+](=O)[O-])n1CC(C)O (configuration not stated)", "Potency": "inactive"}
{"molecule": "CCN(CC)CC#CCOC(=O)C(O)(c1ccccc1)C1CCCCC1 (configuration not stated)", "Potency": "inactive"}
{"molecule": "C=C1C(=CC=C2CCC[C@]3(C)[C@@H]([C@H](C)C=C[C@H](C)C(C)C)CC[C@@H]23)C[C@@H](O)C[C@@H]1O", "Potency": "9.35 µM (active)"}
{"molecule": "CC(C)Nc1cc(C(F)(F)F)cc2nc(NC(=O)c3cccnc3)nn12", "Potency": "2.35 µM (active)"}
{"molecule": "CC(C)NCC(O)COc1ccc(COCCOC(C)C)cc1 (configuration not stated)", "Potency": "inactive"}
{"molecule": "Cc1nnc(NS(=O)(=O)c2ccc(N)cc2)s1", "Potency": "8.33 µM (active)"}

###

- experiment_summary: Viability qHTS for spleen associated tyrosine kinase inhibitor (SYKi) drug resistant MV4-11 cells (AID 1963824); note: nearly all actives have a fitted effect of over 35% in size; note: potency is the fitted concentration of half-maximal effect
- test_context: SYKi-resistant MV4-11 viability, CellTiter-Glo, 72 h; series mostly up to 45 µM
- Description: Department of Medicine, Hematology/Oncology University Hospital Frankfurt, Germany. Trials have shown promising clinical activity of the selective SYK inhibitor entospletinib in patients with high expressing HOXA9/MEIS1 acute leukemias. […] 7; Detection; Luminescence; ViewLux plate reader (PerkinElmer). […] 1. Quantitative high-throughput screening (qHTS) of small molecule compounds was conducted on drug resistant SYKi MV4-11 cell line. […] 7. Luminescence was measured on a ViewLux plate reader (PerkinElmer).
Records with an inconclusive call do not appear. Activity calls are given as the source filed them. Calls come from the whole dose curve; as a rule, active = well fitted cell-killing curve with a large enough effect; inconclusive = small, poorly fitted or top-dose-only effect, or effect the other way; inactive = no such curve, though single readings can be large or run the other way.
reported_endpoint: Potency

{"molecule": "NCCCCCC(=O)O", "measured_value": "inactive"}
{"molecule": "CCC(C)(C)C1CCc2c(sc(NC(=O)c3ccc(Br)cc3)c2C#N)C1 (configuration not stated)", "measured_value": "inactive"}
{"molecule": "N#Cc1ccc(Nc2nc(-c3ccc(O)cc3O)cs2)cc1C(F)(F)F", "measured_value": "4.61 µM (active)"}
{"molecule": "COc1cc([C@H]2O[C@H](c3cc(OC)c4c(c3)OCO4)[C@H](C)[C@H]2C)cc(OC)c1OC", "measured_value": "0.893 µM (active)"}
{"molecule": "CCCCCCCCCCCCCCCC[n+]1ccccc1", "measured_value": "0.668 µM (active)"}
{"molecule": "CC(C)n1nc(Cc2cccc3ccccc23)c2c(N)ncnc21", "measured_value": "8.2 µM (active)"}
{"molecule": "Cc1cc(-c2nncc3c(C(C)(C)C)c(OCc4ncnn4C)nn23)no1", "measured_value": "inactive"}

###

- experiment_summary: Quantitative highthroughput screen to assess conditional lethalithy of P12 Ichikawa cells grown in Human Plasma-Like Medium with dialyzed fetal bovine serum (HPLM+ds) (AID 1963879); note: nearly all actives have a fitted effect of over 35% in size
- test_context: ATP luminescence, 48 h; viability; series mostly up to 45.8 µM
Inconclusive results are not listed. Activity calls are given as the source filed them. The call rests on the fitted dose curve; in most records, active means well fitted cell-killing curve with a large enough effect; inconclusive means small, poorly fitted or top-dose-only effect; inactive means flat fitted curve, though single readings scatter.
Classes used: active, inactive

{"compound": "O=C(Nc1nnc(-c2ccco2)o1)c1cc(-c2ccccc2)nc2ccccc12", "answer_label": "active"}
{"compound": "O=C(/C=C\\n1cnc(-c2cc(C(F)(F)F)cc(C(F)(F)F)c2)n1)NNc1cnccn1", "answer_label": "active"}
{"compound": "O=C(O)[C@H]1O[C@H](Oc2cc3oc(-c4ccccc4)cc(=O)c3c(O)c2O)[C@H](O)[C@@H](O)[C@H]1O", "answer_label": "inactive"}
{"compound": "O=c1[nH]c(-c2ccc(C(F)(F)F)cc2)nc2c1CSCC2", "answer_label": "inactive"}
{"compound": "COc1cc2nccc(Oc3ccc(NC(=O)NC4CC4)c(Cl)c3)c2cc1C(N)=O", "answer_label": "active"}
{"compound": "O=c1[nH]nc(Sc2ncc([N+](=O)[O-])s2)n1-c1ccc2c(c1)OCCO2", "answer_label": "active"}
{"compound": "O=C1C(CCC(O)c2ccc(F)cc2)C(c2ccc(O)cc2)N1c1ccc(F)cc1 (centres undefined)", "answer_label": "inactive"}
{"compound": "CC(=CC(=O)Nc1ccccc1C(=O)O)c1ccc2ccccc2c1", "answer_label": "inactive"}
{"compound": "O=C(C=CC=Cc1ccc2c(c1)OCO2)N1CCCCC1", "answer_label": "inactive"}

###

- experiment_summary: Quantitative highthroughput screen to assess conditional lethalithy of NOMO1 cells grown in RPMI1640 with untreated serum (RPMI+s) (AID 1963876); note: nearly all actives have a fitted effect of over 35% in size
- test_context: NOMO1 AML cells in RPMI+serum, CellTiter-Glo viability, 48 h; series mostly up to 45.8 µM
Inconclusive results are not listed. Active and inactive are the calls of the source. The call rests on the fitted dose curve; in most records, active means well fitted cell-killing curve with a large enough effect; inconclusive means small, poorly fitted or top-dose-only effect; inactive means flat fitted curve, though single readings scatter.
Classes used: active, inactive

{"molecule": "C[C@@]12C(=O)OC(=O)[C@@]1(C)C1CCC2O1", "answer_label": "active"}
{"molecule": "Cc1cccc(Nc2ccncc2S(=O)(=O)NC(=O)NC(C)C)c1", "answer_label": "inactive"}
{"molecule": "CNS(=O)(=O)CCc1ccc2[nH]cc(C3CCN(C)CC3)c2c1", "answer_label": "inactive"}
{"molecule": "O=C(O)C1CCCN(CCC=C(c2ccccc2)c2ccccc2)C1 (stereo unspecified)", "answer_label": "inactive"}
{"molecule": "CC(C)(O)[C@H]1CC[C@@](C)([C@H]2[C@@H](O)C[C@@]3(C)[C@@H]4C[C@H](O[C@@H]5O[C@H](CO)[C@@H](O)[C@H](O)[C@@H]5O)[C@H]5C(C)(C)[C@@H](O[C@@H]6OC[C@@H](O)[C@H](O)[C@@H]6O)CC[C@@]56C[C@@]46CC[C@]23C)O1", "answer_label": "inactive"}
{"molecule": "Nc1cc(C(F)(F)F)c(-c2cc(N3CCOCC3)nc(N3CCOCC3)n2)cn1", "answer_label": "active"}
{"molecule": "O=C(Nc1ccccc1Br)N[C@@H]1CCN(c2ccc(C(F)(F)F)cn2)C1", "answer_label": "inactive"}
{"molecule": "CC(=O)NCCC(=O)N[C@@H](CCC(N)=O)C(=O)N[C@@H](CO)C(=O)N[C@@H](CCC(N)=O)C(=O)N[C@@H](CCC(N)=O)C(=O)N[C@H](C(=O)N[C@@H](Cc1ccccc1)C(=O)N[C@]1(C)CCCCCCC=CCCC[C@@](C)(C(=O)N[C@@H](CCC(N)=O)C(=O)N[C@@H](CC(N)=O)C(N)=O)NC(=O)[C@H](CC(C)C)NC(=O)[C@H](CC(C)C)NC(=O)[C@@H](CCCNC(=N)N)NC(=O)[C@H](Cc2c[nH]c3ccccc23)NC(=O)[C@H](CC(C)C)NC(=O)[C@H](CC(N)=O)NC1=O)[C@H](C)O", "answer_label": "inactive"}
{"molecule": "CN1CCN(c2ncc(-c3cc(Cl)cc(Cl)c3Cl)c(N)n2)CC1", "answer_label": "active"}
{"molecule": "N#CC(=C(O)c1ccc(Cl)cc1Cl)c1nc2cc(Cl)ccc2c(=O)[nH]1", "answer_label": "inactive"}
{"molecule": "Clc1ccc(COC(Cn2ccnc2)c2ccc(Cl)cc2Cl)cc1 (stereo unspecified)", "answer_label": "inactive"}

###

- experiment_summary: Viability qHTS for spleen associated tyrosine kinase inhibitor (SYKi) drug resistant MV4-11 cells (AID 1963824); note: nearly all actives have a fitted effect of over 35% in size; note: potency is the fitted concentration of half-maximal effect
- test_context: SYKi-resistant MV4-11 viability, CellTiter-Glo, 72 h; series mostly up to 45 µM
Records with an inconclusive call do not appear. Activity calls are given as the source filed them. Calls come from the whole dose curve; as a rule, active = well fitted cell-killing curve with a large enough effect; inconclusive = small, poorly fitted or top-dose-only effect, or effect the other way; inactive = no such curve, though single readings can be large or run the other way.

{"molecule": "CC1(CO)CCCC2(C)C3COC(=O)C3=CC(O)C12 (stereo not given)", "Potency": "inactive"}
{"molecule": "O=C(O[C@H]1[C@@H]2C[C@@H]3OC[C@](O)([C@@H]1Cl)[C@H]2C(O[C@@H]1O[C@H](CO)[C@@H](O)[C@H](O)[C@H]1O)O3)c1ccc(O)c(O)c1 (stereo not given in full)", "Potency": "inactive"}
{"molecule": "CC(CN1c2ccccc2Sc2ccccc21)N(C)C (stereo not given)", "Potency": "inactive"}
{"molecule": "C/C=C(/COC(=O)/C(C)=C/C)C(=O)OC/C=C/c1ccc(OC)cc1", "Potency": "12.8 µM (active)"}
{"molecule": "O=C1NC(c2cccc([N+](=O)[O-])c2)=CCN1c1ccccc1O", "Potency": "inactive"}
{"molecule": "COc1ccc(C(Cl)=C(c2ccc(OC)cc2)c2ccc(OC)cc2)cc1", "Potency": "inactive"}
{"molecule": "O=c1[nH]c(=O)n(C2CCCO2)cc1F (stereo not given)", "Potency": "18.6 µM (active)"}
{"molecule": "Nc1ncnc2nc(-c3ccc(N4CCOCC4)nc3)cc(-c3cccc(Br)c3)c12", "Potency": "8.33 µM (active)"}
{"molecule": "CC(=O)N[C@H](Cc1ccc(O)cc1)C(=O)N[C@H](CCCN=C(N)N)C(=O)N[C@H](Cc1ccccc1)C(N)=O", "Potency": "inactive"}
{"molecule": "Cc1ccc(C(=O)c2ccc(CC(=O)O)n2C)cc1", "Potency": "inactive"}
{"molecule": "C=C1C(=O)O[C@@H]2C(OC(=O)/C(C)=C\\C)/C(C)=C\\C(=O)/C=C(\\C)C[C@H](O)[C@@H]12 (stereo not given in full)", "Potency": "1.01 µM (active)"}
{"molecule": "CC(C)CCNC(=O)c1ccc2c(c1)nc(Nc1n[nH]c3ccc(-c4ccccc4OC(F)(F)F)cc13)n2C1CCC(O)CC1 (stereo not given)", "Potency": "16.4 µM (active)"}
{"molecule": "CCn1cc(C(=O)O)c(=O)c2cc(F)c(N3CCNC(C)C3)c(F)c21 (stereo not given)", "Potency": "inactive"}
{"molecule": "NC(=S)N/N=C/c1cccnc1", "Potency": "inactive"}
{"molecule": "c1ccc(CN(CC2=NCCN2)c2ccccc2)cc1", "Potency": "inactive"}
{"molecule": "CN1CC[C@@H](c2c(O)cc(O)c3c(=O)cc(-c4ccccc4Cl)oc23)[C@@H](O)C1", "Potency": "0.296 µM (active)"}
{"molecule": "CCCc1cc(C)[nH]c(=O)c1CNC(=O)c1cc(-c2ccnc(N3CCN(C)CC3)c2)cc2c1cnn2C(C)C", "Potency": "11.8 µM (active)"}
{"molecule": "CC(=O)Nc1nc(C)c(-c2ccc(Cl)c(S(=O)(=O)NCCO)c2)s1", "Potency": "0.92 µM (active)"}
{"molecule": "CNC(=O)Nc1ccc(OC)c(NC(=O)NC(=O)c2cc(F)c(F)cc2Cl)c1", "Potency": "inactive"}
{"molecule": "N#Cc1ccc(O[C@@H]2c3ccccc3C[C@H]2N2CCC[C@@H](N)C2)c(Cl)c1", "Potency": "16.4 µM (active)"}
{"molecule": "COc1ccc(CCO[C@@H]2O[C@H](CO[C@@H]3OC[C@H](O)[C@H](O)[C@H]3O)[C@@H](O)[C@H](O)[C@H]2O)cc1", "Potency": "inactive"}
{"molecule": "COC(=O)c1cc(Br)cnc1N1CCC(NC2CCCCC2)C(O)C1 (stereo not given)", "Potency": "inactive"}
{"molecule": "COC(=O)C1=CO[C@@H](O[C@@H]2O[C@H](CO)[C@@H](O)[C@H](O)[C@H]2O)[C@@H]2[C@@H](C)[C@@H](O)C(O)[C@H]12 (stereo not given in full)", "Potency": "inactive"}
{"molecule": "Cc1cnc(C(=O)O)c[n+]1[O-]", "Potency": "inactive"}
{"molecule": "CO[C@H]1O[C@@H]2O[C@@]3(C)CCC4[C@H](C)CCC([C@H]1C)[C@]42OO3 (stereo not given in full)", "Potency": "2.91 µM (active)"}
{"molecule": "COc1cc(C)c(C(=O)O[C@H]2[C@@H](O)[C@H](n3ccc(=O)[nH]c3=O)O[C@@H]2CO)c(OC)c1", "Potency": "inactive"}
{"molecule": "CC(C)NCC(O)COc1ccc(COCCOC(C)C)cc1 (stereo not given)", "Potency": "inactive"}
{"molecule": "CC(=O)N[C@H](Cc1c[nH]c2ccccc12)C(=O)OCc1cc(C(F)(F)F)cc(C(F)(F)F)c1", "Potency": "23.1 µM (active)"}
{"molecule": "COc1cccc(-c2ccc([C@@H](Oc3cc(-c4ccc(C[C@H](N)C(=O)O)cc4)nc(N)n3)C(F)(F)F)cc2)c1", "Potency": "20.6 µM (active)"}
{"molecule": "Oc1cc2c(cc1O)C1c3ccc(O)c(O)c3OCC1(O)C2 (stereo not given)", "Potency": "14.8 µM (active)"}
